# SYSTEM UNDER TEST: RSV F on RSV subtype A virus (mKate-RSV A2) (respiratory syncytial virus A2, UniProt P03420 26-574)
# TEST NAME: cell-based or functional assay
Could you please report measured Neut IC50 subtype A for the items listed next?
Value expressed in µg/mL; do not type the unit.

INPUT: Neut IC50 subtype A for ADI-25532 (antibody, V domains shown, full-length IgG) VH: QVQLVQSGGGLVKPGGSLRLSCAASGFTFSSYSMNWVRQAPGKGLEWVSSISSSSSYIYYADSVKGRFTISRDNAKNSLYLQMNSLRAEDTAVYYCARGSSSSWYYFDYWGQGTLVTVSS VL: QSVVTQPPSVSGAPGQRVTISCTGSSSNIGAGYDVHWYQQLPGTAPKLLIYGNSNRPSGVPDRFSGSKSGTSASLAITGLQAEDEADYYCQSYDSSLSYVFGTGTKVTVL ?
OUTPUT: 0.04

INPUT: # query: Neut IC50 subtype A of entry ADI-24799 (antibody, V domains shown, full-length IgG) VH: EVQLVESGGGLVKPGGSLRLSCAASGFTFSSYSMNWVRQAPGKGLEWVSSISSSSSYIYYADSVKGRFTISRDNAKNSLYLQMNSLRAEDTAVYYCAREGRDGYNYYFDYWGQGTLVTVSS VL: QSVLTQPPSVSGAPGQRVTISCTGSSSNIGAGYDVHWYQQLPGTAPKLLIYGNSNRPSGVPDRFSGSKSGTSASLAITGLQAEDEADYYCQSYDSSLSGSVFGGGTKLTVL
OUTPUT: 11.5

INPUT: Recorded Neut IC50 subtype A of ADI-25478 (antibody, V domains shown, full-length IgG) VH: EVQLLESGGGLVKPGGSLRLSCAASGFTFSSYSMNWVRQAPGKGLEWVSSISSSSSYIYYADSVKGRFTISRDNAKNSLYLQMNSLRAEDTAVYYCARLDYSNYYYYMDVWGKGTTVTVSS VL: QPVLTQPPSVSGAPGQRVTISCTGSSSNIGAGYDVHWYQQLPGTAPKLLIYGNSNRPSGVPDRFSGSKSGTSASLAITGLQAEDEADYYCQSYDSSLSGYVFGTGTKLTVL , please.
OUTPUT: 2.18

INPUT: Could you tell me which Neut IC50 subtype A is on file for ADI-24860 (antibody, V domains shown, full-length IgG; also called Ab 420) VH: EVQLLESGGGLVKPGGSLRLSCAASGLTFSDYYMSWIRQAPGKGLEWVSYISGGSSYSNYADSVKGRFTISRDNAKNSLYLQMNSLRAEDTAVYYCARGYCSGSSCYEAFDIWGQGTTVTVSS VL: SYVLTQPPSVSGAPGQRVTISCTGSSSNIGAGFDVHWYQQLPGTAPKLLIYGNSDRPSGVPDRFSGSKSGTSASLAITGLQAEDEADYYCQSYDSSLSGYVFGTGTKVTVL ?
OUTPUT: 0.06

INPUT: Fill in the blank: the reported Neut IC50 subtype A of ADI-14365 (antibody, V domains shown, full-length IgG; also called Ab 33) VH: QVQLVQSGAEVKKPGASVKVSCKVSGYTLTKLSMHWVRQAPGKGLEWMGFFDPEDGDTLYAQKFQGRVTMTEDTSSDTPYMELRSLRSEDTAVYYCASPAAAGQFDYWGQGTLVTVSS VL: DIVMTQSPSSLSASVGDRVTITCRASQFISSYLHWYQQKTGKAPKLLIYAASSLQSGVPSRFSGSGSGTDFTLTISSLQPEDFATYYCQQSYNTPRTFGQGTKLEIK is ____.
OUTPUT: 0.8

INPUT: # get_value(readout='Neut IC50 subtype A', item= ADI-25495 (antibody, V domains shown, full-length IgG) VH: QVQLVQSGGGLVKPGGSLRLSCAASGFTFSSYSMNWVRQAPGKGLEWVSSISSSSSYIYYADSVKGRFTISRDNAKNSLYLQMNSLRAEDTAVYYCARGYCTNGVCYLDAFDIWGQGTTVTVSS VL: QSVLIQPASVSGSPGQSITISCTGTSSDVGGYNYVSWYQQHPGKAPKLMIYDVSNRPSGVSNRFSGSKSGNTASLTISGLQAEDEADYYCSSYTSSSTPVVFGGGTKVTVL )
OUTPUT: 0.24

INPUT: Given the binder ADI-24842 (antibody, V domains shown, full-length IgG) VH: QVQLVQSGGGLVKPGGSLRLSCAASGFTFSSYSMNWVRQAPGKGLEWVSSISSSSSYIYYADSVKGRFTISRDNAKNSLYLQMNSLRAEDTAVYYCARVPPHDYGGYYFDYWGQGTLVTVSS VL: QSVVTQPPSVSGAPGQRVTISCTGSSSNIGAGYDVHWYQQLPGTAPKLLIYRNSNRPSGVPDRFSGSKSGTSASLAIIGLQAEDEADYYCQSYDSSLSVVFGGGTKLTVL , what is its reported Neut IC50 subtype A?
OUTPUT: 0.03
